In this section, each of the molecules is paired with its reported pIC50.
Tested on: MDA-MB-231
measurement_protocol: Antiproliferative activity against human MDA-MB-231 cells after 48 hrs by WST-1 assay
Assay type: functional, cell-based
settings: MDA-MB-231, 48 h
The scale used: pIC50 is minus the common logarithm of the concentration in molar units.

In the examples that follow, each entry is paired with its recorded pIC50.
CO[C@@H]1CC(c2ccc[nH]2)=N[C@]12O[C@@H](C)C[C@@H]1CCCCCCCc3ccc([nH]3)[C@H]12    6.44
COC1=CC(c2ccc[nH]2)=N/C1=C\NCCC(C)C    4.82
COC1=CC(c2ccc[nH]2)=N/C1=C/c1ccc(CCCCCCC/C=C/C(C)=O)[nH]1    5.46

Query (molecule): COC1=CC(c2ccc[nH]2)=N/C1=C\NC1CCCc2ccccc21 (centres undefined) ; field requested: pIC50 5.40
